The reported numbers originate from paper PMC12040169.

# Lookup of reported viability at 28.5 h, 1 µM keyed by entry
- test: in vitro
- Design: Viability of infected HeLa host cells, resazurin conversion, bulk resorufin fluorescence relative to DMSO
- reported conditions: human, hela cells; bulk resorufin, mean of 2
quantity measured: viability at 28.5 h, 1 µM (%)

NC(Cc1ccccc1)CN(CC1(c2ccc(Cl)cc2)CC1)C(=O)Nc1ccc2c(c1)OCO2 (stereo not drawn) [CBK002342C] | 95.3
Cc1cc(C)nc(NS(=O)(=O)c2ccc(NC(=O)N3c4ccccc4Sc4ccccc43)cc2)n1 | 92.3
CCCCc1ccc(NC(=N)Nc2nc(C)cc(C)n2)cc1 | 90.3
Cc1noc(NS(=O)(=O)c2ccc(N/C=C\C(=O)c3cccnc3)cc2)c1C | 106
O=C1C(NCCO)=C(Nc2cccc(Cl)c2)C(=O)c2ccccc21 | 102
O=C(O)c1cn(C2CC2)c2cc(N3CCN(C(=O)Cc4ccccc4Cl)CC3)c(F)cc2c1=O | 88.5
Oc1ccc(Cn2cnc3ccccc32)c2cccnc12 | 105
COc1ccc(CCN(CCc2ccccc2)CC(O)COc2cccc3c2CCCC3)cc1 (stereo not drawn) [CBK024506T] | 97.4
CCOc1ccc(OCC)c2c1n(C)c(SC)[n+]2C [CBK005720G] | 90.5
C[C@H](NC(=O)Cc1ccc(-c2ccccc2)cc1)c1nc2ccccc2[nH]1 | 89.7
CCc1nnc(NS(=O)(=O)c2ccc(NC(=S)NC(=O)c3ccco3)cc2)s1 | 100
COc1cc(/C=N/c2cccc3c(/N=C/c4ccc(O)c(OC)c4)cccc23)ccc1O | 89.7
COc1cccc(CNC(C(=O)O)c2ccc3c(c2)OCO3)c1 (stereo not drawn) [CBK015420D] | 92.7
CC(Nc1cccc2ccccc12)C(=O)N/N=C/c1c(O)ccc2ccccc12 (stereo not drawn) | 90.9
Cc1nn(C)c(N2CCN(C(=O)OC(C)(C)C)CC2)c1N | 90.6
COc1cccc(C(=O)/C=C\Nc2ccc(S(=O)(=O)Nc3onc(C)c3C)cc2)c1 | 106
CC(C)(CN)CN(Cc1c[nH]c(-c2ccccc2)n1)C(=O)Nc1ccc(C(C)(C)C)cc1 [CBK002462C] | 91.6
COc1ccc(CC(=O)N2CCCC(c3nc(C)c4c(n3)N(CC3CC3)CCC4)C2)cc1 (stereo not drawn) | 102
O=C(Nc1cc(Cl)nc(Cl)c1)N(Cc1ccc(-c2ccccc2)cc1)CC1CCNCC1 | 95.2
COc1cc(CN2CCNCC2)c2ccn(S(=O)(=O)c3cccc(Cl)c3C)c2c1 [CBK144484T] | 104
Cc1ccc(CNC(=O)OCc2cccnc2C)o1 | 102
N=c1c2c(-c3ccccc3)c(-c3ccccc3)n(Cc3ccccc3)c2ncn1CCN1CCOCC1 | 94.8
CC(=O)NC[C@H]1CN(c2ccc(-c3nnc([C@@H](C)N)s3)c(F)c2)C(=O)O1 | 92.5
CC(Cc1nc(-c2nccn2C(C)C)cs1)n1cc(Cl)cn1 (stereo not drawn) | 90.7
COc1ccc([C@H]2CN(Cc3ccccc3)[C@@H]3CCN(C(=O)Cc4ccsc4)C[C@H]23)cc1 | 89.3
O=C(CSc1nnc(-c2cccnc2)o1)c1ccccc1 | 112
O=C(CSCc1ccc(Cl)cc1)Nc1ccc(S(=O)(=O)N2CCCCCC2)cc1 | 101
NCc1ccc2cccc(O)c2n1 [CBK001376T] | 109
CN(C)[C@H]1CCC[C@@H]1C(=O)Nc1ccc(Cl)c(Cl)c1 | 105
Cc1cc(C(=O)Nc2ccc(S(=O)(=O)Nc3onc(C)c3C)cc2)no1 | 101
c1ccc(-c2nc3cc4ccccc4cc3[nH]2)nc1 | 99.1
CC(C)Nc1nc2cc(Cl)c(Cl)cc2nc1Sc1cccc(O)c1 | 95.8
CC1=NN(c2ccc(C)cc2)C(=O)/C1=C\Nc1ccc(S(=O)(=O)Nc2nc(C)cc(C)n2)cc1 | 94.6
Fc1cccc(F)c1OCCOc1nc(N2CCNCC2)ccc1C(F)(F)F [CBK003977A] | 92.3
O=C1CC[C@@H](NCc2cccs2)[C@H](c2cc(F)cc(F)c2)N1 | 112
C[C@@H]1CN(c2ccc(C(F)(F)F)c(OCc3ccccc3)n2)CCN1 [CBK003987A] | 102
